Overview of recorded pIC50 for various binders
# experimental_target: T1, soluble human FcRn (shFcRn) (human, UniProt P55899 24-297; P61769 21-119, biotinylated with Sulfo-NHS-LC-Biotin in the ELISA; amine-coupled to a CM5 chip in SPR)
# T1 construct: also called biotinylated shFcRn
# T1 sequence (P55899 24-297 limits assumed, chain 1 of 2): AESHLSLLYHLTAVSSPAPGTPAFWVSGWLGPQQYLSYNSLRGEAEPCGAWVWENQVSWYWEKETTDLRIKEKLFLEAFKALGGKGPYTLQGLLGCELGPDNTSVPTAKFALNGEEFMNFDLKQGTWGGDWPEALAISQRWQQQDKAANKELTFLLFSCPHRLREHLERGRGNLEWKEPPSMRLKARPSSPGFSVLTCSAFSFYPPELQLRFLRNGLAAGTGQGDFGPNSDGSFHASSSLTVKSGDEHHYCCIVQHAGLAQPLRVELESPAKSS
# T1 sequence (P61769 21-119 limits assumed, chain 2 of 2): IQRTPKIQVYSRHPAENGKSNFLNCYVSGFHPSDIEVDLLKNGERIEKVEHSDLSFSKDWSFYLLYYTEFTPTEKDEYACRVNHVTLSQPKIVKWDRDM
# experiment: competition ELISA vs human IgG
pIC50: −log10 of the molar value. Positions of bridges follow the written chain, without caps; N, C: chain ends. Non-standard residues stand in square brackets, D forms with d. No end group written: not given here. Pen = CC(C)(S)[C@H](N)C(=O)O

binder | pIC50
QRF[Pen]TGHF[dF][dA]LYPCNGP-NH2 (disulfide 4-14; N-terminus assumed; SMILES CC(C)C[C@@H]1NC(=O)[C@@H](C)NC(=O)[C@@H](Cc2ccccc2)NC(=O)[C@H](Cc2ccccc2)NC(=O)[C@H](Cc2c[nH]cn2)NC(=O)CNC(=O)[C@H]([C@@H](C)O)NC(=O)[C@@H](NC(=O)[C@H](Cc2ccccc2)NC(=O)[C@H](CCCNC(=N)N)NC(=O)[C@@H](N)CCC(N)=O)C(C)(C)SSC[C@@H](C(=O)N[C@@H](CC(N)=O)C(=O)NCC(=O)N2CCC[C@H]2C(N)=O)NC(=O)[C@@H]2CCCN2C(=O)[C@H](Cc2ccc(O)cc2)NC1=O) [Peptide No. 151] | 5.37
QRFVTGHFG[dP]FYPANGP-NH2 (N-terminus assumed; SMILES CC(C)[C@H](NC(=O)[C@H](Cc1ccccc1)NC(=O)[C@H](CCCNC(=N)N)NC(=O)[C@@H](N)CCC(N)=O)C(=O)N[C@H](C(=O)NCC(=O)N[C@@H](Cc1c[nH]cn1)C(=O)N[C@@H](Cc1ccccc1)C(=O)NCC(=O)N1CCC[C@@H]1C(=O)N[C@@H](Cc1ccccc1)C(=O)N[C@@H](Cc1ccc(O)cc1)C(=O)N1CCC[C@H]1C(=O)N[C@@H](C)C(=O)N[C@@H](CC(N)=O)C(=O)NCC(=O)N1CCC[C@H]1C(N)=O)[C@@H](C)O) [Peptide No. 175] | 3.70
QRFVTGHFGXLYPWNGP (D-Pro10; unbridged; C-terminal amide) [Peptide No. 172] | 3.82
QRFXTGHFXGLYPCNGP (Pen4; D-Pro9; disulfide; C-terminal amide) [Peptide No. 48] | 5.30
QRFXTGHFXGLYPCNGP (Pen4; D-Tyr9; disulfide; C-terminal amide) [Peptide No. 53] | 5.49
QRFXTGHFXGXYPCNGP (Pen4; D-Ala9; NMeLeu11; disulfide; C-terminal amide) [Peptide No. 154] | 5.49
QRFXTGHFXXLYPCNGP (Pen4; D-Phe9; D-Pro10; disulfide; C-terminal amide) [Peptide No. 150] | 5.23
RFXTGHFGXXYPCG (Pen3; Sar9; NMeLeu10; intrachain disulfide; C-termini joined through a branching Lys, dimer made as Peptide No. 280) [Peptide No. 287] | 7.70
QRFXTGHFGXWYPCNGP (Pen4; Sar10; disulfide; C-terminal amide) [Peptide No. 238] | 6.00
RFXTGHFGXXYPC (sequence analogous to Peptide No. 235; C-termini joined through a branching Lys (Fmoc-Lys(Fmoc)-OH); intrachain disulfide, dimer) [Peptide No. 280] | 7.60
